Hi there, I'd appreciate the recorded protein stability index for every entry that follows.
B1: KRT71 (parent)
chain: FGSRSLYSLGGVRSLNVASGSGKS

Variants of: B1
test: protein stability index of a GFP-peptide fusion (GPS, HEK-293T) (PSI 1-6); higher = more stable;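 further: lentivirally expressed fusions sorted by FACS into six bins by GFP to DsRed ratio, PSI derived from sequencing read proportions per bin multiplied by bin number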
setup-conditions: c terminus: a fixed tail appended
Give the figure by itself; no unit, no explanation.

What measured protein stability index goes with FGSRSLYSLGSVRSLNVASGSGKS [G11S] ?
2.11

Given the variant QGSRSLYSLGGVRSLNVASGSGKS [F1Q] , what is its reported protein stability index?
4.4

Please look up its protein stability index: FGSRSLYSQGGVRSLNVASGSGKS [L9Q]
2.79

// returns reported protein stability index for input FGSRSLYFLGGVRSLNVASGSGKS [S8F]
1.21

For the variant shown here, FGSRSLYSLGGVRSLNVASGTGKS [S21T] , give the reported protein stability index.
1.93

GET /values?readout=protein stability index&item= FGSRSLYSLGGVRALNVASGSGKS [S14A]
1.59

Which protein stability index is listed for FGSRSLYSLGGVRSLNVADGSGKS [S19D] ?
1.89

Entry under review: FGSRELYSLGGVRSLNVASGSGKS [S5E] . Reported protein stability index?
2.77

Find the recorded protein stability index belonging to FPSRSLYSLGGVRSLNVASGSGKS [G2P] and report it.
2.07

Can you look up the measured protein stability index of FGSRSLYSLGGVRSLNVASGSLKS [G22L] for me?
1.64

Please report the recorded protein stability index for FGSRSLYSLGGVRSLNVHSGSGKS [A18H] .
2.39

Name the reported protein stability index value associated with the variant GGSRSLYSLGGVRSLNVASGSGKS [F1G]
3.44

Which protein stability index is reported for this variant? FGWRSLYSLGGVRSLNVASGSGKS [S3W]
1.59

Name the reported protein stability index value associated with the variant FGSRSLYSLGGVRSLNVASGSGKN [S24N]
1.7

What does the data say about its protein stability index? Entry: FGSISLYSLGGVRSLNVASGSGKS [R4I]
1.7

Which protein stability index is listed for FESRSLYSLGGVRSLNVASGSGKS [G2E] ?
3.3

Would you kindly share the measured protein stability index for FGSRSLYSLGGVRSINVASGSGKS [L15I] ?
1.7

// protein stability index lookup, key: FGSRSLYSLGGVRSLNVAKGSGKS [S19K]
2.23

I would be grateful if you could share the reported protein stability index for FGSRSLYSLGGVRSLNVASNSGKS [G20N] .
1.82

Data request, read-out protein stability index, for FGSRSLYSLGGVRSLNVASGRGKS [S21R]
2.5

What value of measured protein stability index is listed for FGSRSLYSLGVVRSLNVASGSGKS [G11V] ?
4.85

May I ask what protein stability index has been recorded for FGSRCLYSLGGVRSLNVASGSGKS [S5C] ?
1.5

Which protein stability index is reported for this variant? FGSRSLYSLGGVRSLNVASGCGKS [S21C]
1.49

Which protein stability index reading was recorded for the variant FGSRSLYSLGGVRSLNVKSGSGKS [A18K] ?
2.63

Can you share its protein stability index? I mean this variant: FGSRSLYSVGGVRSLNVASGSGKS [L9V]
2.62

Please give the measured protein stability index for this variant: FGSRSLYSLGGVRSLNVASGKGKS [S21K]
2.06

Query (variant): FTSRSLYSLGGVRSLNVASGSGKS [G2T] ; field requested: protein stability index
1.32

Form field: reported protein stability index of FGSRSLYSKGGVRSLNVASGSGKS [L9K]
2.27

Endpoint output: protein stability index of RGSRSLYSLGGVRSLNVASGSGKS [F1R] . Value?
3.55

# lookup: protein stability index of FGSRSLYSAGGVRSLNVASGSGKS [L9A]
2.5

Return reported protein stability index; argument: FGSRSLYSLGPVRSLNVASGSGKS [G11P]
1.8

Find the recorded protein stability index belonging to FGSRSLYSLGGVRSLHVASGSGKS [N16H] and report it.
2.21

Fill in the blank: the reported protein stability index of FGSRSLYSLGMVRSLNVASGSGKS [G11M] is ____.
2.71

I have this variant here, FSSRSLYSLGGVRSLNVASGSGKS [G2S] , and I need its recorded protein stability index.
1.99

So what does the record say about protein stability index for FGSRSLYWLGGVRSLNVASGSGKS [S8W] ?
2.62

Which protein stability index is reported for this variant? FGSRSYYSLGGVRSLNVASGSGKS [L6Y]
1.48

I am curious: what protein stability index value has been reported for FGSRSLYSTGGVRSLNVASGSGKS [L9T] ?
2.64

What does the record list as protein stability index for FGSRSLASLGGVRSLNVASGSGKS [Y7A] ?
3.46

Would you kindly share the measured protein stability index for FGSRSLYSLGGVRSLNNASGSGKS [V17N] ?
1.83

Which protein stability index is listed for FGSRSLYSLGGVRSLNVASKSGKS [G20K] ?
1.5

I would be grateful if you could share the reported protein stability index for FGSRSLYSLGGVISLNVASGSGKS [R13I] .
1.93

# input variant: FWSRSLYSLGGVRSLNVASGSGKS [G2W] ; wanted: its protein stability index
1.8

Could you share which protein stability index value was measured for FGSRSLYSLGGVRSLNVASGSVKS [G22V] ?
1.33

Query: protein stability index; subject: FGSRSMYSLGGVRSLNVASGSGKS [L6M]
1.93

Fill blank: measured protein stability index of the variant FGSRSLYSLGGVRSLNQASGSGKS [V17Q] is ____.
1.97

Request the reported protein stability index associated with FGSNSLYSLGGVRSLNVASGSGKS [R4N]
2.12

Each recorded value in this set is attributed to the supplement of paper PMC10567573.
